biological target: glucagon receptor (human, UniProt P47871 26-477); assay: cell-based or functional assay
Sequence (P47871 26-477): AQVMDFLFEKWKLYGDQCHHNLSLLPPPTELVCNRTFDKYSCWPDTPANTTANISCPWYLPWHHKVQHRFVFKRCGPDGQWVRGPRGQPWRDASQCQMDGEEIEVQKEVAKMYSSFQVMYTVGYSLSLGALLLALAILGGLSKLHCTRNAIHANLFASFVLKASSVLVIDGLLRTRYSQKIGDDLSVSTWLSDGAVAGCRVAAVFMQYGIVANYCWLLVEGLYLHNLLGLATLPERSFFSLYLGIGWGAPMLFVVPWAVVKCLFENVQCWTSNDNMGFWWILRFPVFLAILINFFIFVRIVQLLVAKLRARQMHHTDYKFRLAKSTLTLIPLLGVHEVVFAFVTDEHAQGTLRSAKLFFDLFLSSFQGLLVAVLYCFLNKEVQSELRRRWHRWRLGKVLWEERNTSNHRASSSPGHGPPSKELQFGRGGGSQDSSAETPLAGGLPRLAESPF
*1 amine or outer side, *2 acyl side, *3 side chain or, on linkers, in order; H or OH if unused. Where no end group is shown, it is not given here. Side-chain parts run from the residue outwards. The star is where a group is joined. C18 diacid = O=C(O)CCCCCCCCCCCCCCCCC(=O)*; C16 diacid = O=C(O)CCCCCCCCCCCCCCC(=O)*; γGlu = O=C(O)[C@H](CCC(=O)[*:2])N[*:1]; AEEA = NCCOCCOCC(=O)O
assay.readout: Assay (I) Glucagon [EC50] (nM)

Answered cases to consult:
| binder | quantity.unit | Assay (I) Glucagon [EC50] |
| --- | --- | --- |
| HSQGTFTSDVSRYLDTRRAQEFVK([γGlu-AEEA-AEEA-γGlu-γGlu-C18 diacid])WLLST | nM | 0.176 |
| HSHGTFTSDYSKYLDSRRAQDFVK([γGlu-γGlu-AEEA-AEEA-γGlu-C18 diacid])WLLST | nM | 0.129 |
| HSQGTFTSDYSRYLDLRRAQDFVK([γGlu-γGlu-AEEA-AEEA-γGlu-C18 diacid])WLLQT | nM | 0.204 |
| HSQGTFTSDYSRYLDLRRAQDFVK([γGlu-AEEA-AEEA-γGlu-γGlu-C18 diacid])WLLST | nM | 0.91 |
| HSQGTFTSDYSKYLESRRAQEFVK([γGlu-γGlu-γGlu-γGlu-C18 diacid])WLLST | nM | 0.169 |
| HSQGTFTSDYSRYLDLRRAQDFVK([γGlu-γGlu-AEEA-AEEA-γGlu-C16 diacid])WLLGT | nM | 0.09 |
| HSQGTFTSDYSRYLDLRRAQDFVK([γGlu-γGlu-AEEA-AEEA-γGlu-C18 diacid])WLLST | nM | 0.255 |
| HSQGTFTSDYSKYLDARRAQDFVK([γGlu-γGlu-AEEA-AEEA-γGlu-C18 diacid])WLEST | nM | 0.07 |

a = HSQGTFTSDYSRYLESRRAQEFVK([γGlu-γGlu-AEEA-AEEA-γGlu-C18 diacid])WLEST
b = HSQGTFTSDYSRYLDLRRAQEFVK([γGlu-γGlu-AEEA-AEEA-γGlu-C18 diacid])WLLST
Could you tell me which of a and b has the lower Assay (I) Glucagon [EC50] reading? # answer = label of selected item
b
(b: 0.095 nM, a: 1.09 nM)

This collection of values is drawn from patent US20130079278A1.
